The origin of these recorded values is BindingDB's records for patent WO2025049746.

# IC50 per entry
- STUDY_SYSTEM: Bifunctional 3'-5' exonuclease/ATP-dependent helicase WRN [480-1251] (UniProt Q14191)
- Construct: 480-1251
- Sequence (Q14191 480-1251): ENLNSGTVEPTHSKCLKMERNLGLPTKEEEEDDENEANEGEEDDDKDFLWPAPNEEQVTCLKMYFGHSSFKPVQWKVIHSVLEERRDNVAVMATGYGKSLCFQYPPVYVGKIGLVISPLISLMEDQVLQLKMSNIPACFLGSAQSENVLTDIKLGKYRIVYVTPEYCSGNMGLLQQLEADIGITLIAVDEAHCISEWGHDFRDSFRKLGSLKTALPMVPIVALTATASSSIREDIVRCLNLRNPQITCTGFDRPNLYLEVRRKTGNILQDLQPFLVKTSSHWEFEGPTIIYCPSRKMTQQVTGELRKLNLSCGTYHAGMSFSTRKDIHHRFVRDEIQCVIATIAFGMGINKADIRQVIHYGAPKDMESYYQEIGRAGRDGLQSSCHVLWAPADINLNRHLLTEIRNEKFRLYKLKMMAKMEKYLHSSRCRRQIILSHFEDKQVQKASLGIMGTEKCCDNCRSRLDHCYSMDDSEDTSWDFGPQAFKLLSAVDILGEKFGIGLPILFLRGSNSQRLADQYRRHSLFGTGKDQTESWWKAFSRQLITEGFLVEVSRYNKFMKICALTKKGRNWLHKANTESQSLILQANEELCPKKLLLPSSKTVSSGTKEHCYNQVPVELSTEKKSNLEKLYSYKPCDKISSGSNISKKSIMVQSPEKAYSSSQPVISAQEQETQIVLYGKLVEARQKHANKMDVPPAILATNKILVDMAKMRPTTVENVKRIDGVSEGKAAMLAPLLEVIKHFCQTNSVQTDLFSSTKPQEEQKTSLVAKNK
- ASSAY_SUMMARY: Biochemical Activity Assays
Numbers only here, please. The scale is nM.

Example cases with answers are listed next.
CCc1c(N2CCN(C(=O)c3ncnc(C)c3O)CC2)c(=O)n2nc(N3CCC(=C(F)F)CC3)nc2n1CC(=O)Nc1ccc(C(F)(F)F)cc1Cl    27
CCc1c(N2CCN(C(=O)c3ncnc(C)c3O)CC2)c(=O)n2nc(-c3ccc4c(c3)COC4(C)C)nc2n1CC(=O)Nc1ccc(C(F)(F)F)cc1Cl    45
CCc1c(N2CCN(C(=O)c3ncnc(C)c3O)CC2)c(=O)n2nc(N(C)C)nc2n1CC(=O)Nc1ccc(C(F)(F)F)cc1C    44.3
CCc1c(N2CCN(C(=O)c3cn(C)nc3O)CC2)c(=O)n2nc(N(C)C)nc2n1CC(=O)Nc1ccc(C(F)(F)F)c2c1CC2    129
CCc1c(N2CCN(C(=O)c3ncnc(C)c3O)CC2)c(=O)n2nc(-c3ccc4c(c3)COC4)nc2n1CC(=O)Nc1cc(C2CC2)c(C(F)(F)F)cc1Cl    57
CCc1c(N2CCN(C(=O)C3CCCC3O)CC2)c(=O)n2nc(C3=CCOCC3)nc2n1CC(=O)Nc1ccc(C(F)(F)F)cc1Cl (stereo unspecified)    187
CCc1c(N2CCN(C(=O)c3ncnc(C)c3O)CC2)c(=O)n2nc(-c3ccc4c(c3)C[C@H](C)O4)nc2n1CC(=O)Nc1ccc(C(F)(F)F)cc1Cl    45
CCc1c(N2CCN(C(=O)c3ncnc(C)c3O)CC2)c(=O)n2nc(-c3cc(F)c4nc(C)oc4c3)nc2n1CC(=O)Nc1ccc(C(F)(F)F)cc1Cl    32

[ask] Output IC50 of "CCc1c(N2CCN(C(=O)c3ncnc(C)c3O)CC2)c(=O)n2nc(-c3ccc4c(c3)CCN(C)C4)nc2n1CC(=O)Nc1ccc(C(F)(F)F)cc1Cl"
[reply] 48

[ask] Tell us which IC50 value is on record for "CCc1c(N2CCN(C(=O)c3ncnc(C)c3O)CC2)c(=O)n2nc(-c3ccc4c(c3)COC4)nc2n1CC(=O)Nc1ccc(Cl)c(OC(F)F)c1Cl"
[reply] 25
